Test system: IL-1-induced proteoglycan degradation in bovine nasal cartilage
Assay: Bovine Nasal Cartilage (BNC) assay: inhibition of IL-1-induced proteoglycan degradation (chondroitin sulfate release, 1,9-DMB)
Assay type: cell-based
Details: Bos taurus; bovine nasal cartilage explants; IL-1β (500 U); 48 h with compound + 24 h fresh media; dose responses 10, 1, 0.1 μM
readout name: pIC50
The quantity pIC50 is defined as the negative base-10 logarithm of the molar concentration.

Cc1ccc(Cl)c(Nc2ccccc2/C=C2\CCOC2=O)c1Cl; 6.41

Now take the following compound into account.
Exercise: Record request: pIC50 value, item O=C1OCC/C1=C\c1ccccc1Nc1cccc(C(F)(F)F)c1
Solution: 6.28

Data origin, for the record: patent US5358964A
